# measured.on: SARS-CoV-2 RBD (RBD-2) (SARS-CoV-2)
# assay.details: SPR, Fc-captured IgG
readout: kon
For clarity, give the value followed by its unit.

Use these answered entries as a reference point.
L12.bP12E05 (antibody, V domains shown, human IgG1) VH: EVQLVQSGAEVKKPGASVKVTCKTSGYIFSGYYMHWVRQVPGQGLEWMGWISPDSGATNYAQKFQGRVTMTRDTSITTSYVELTWLKSDDTAVYYCARGPRYSGTYFDFWGQGTLVTVSS VL: QAVVTQPASVSGSPGQSLTISCTGTSSDIGGFNYVSWYQQHPGKAPKLMIFDVSKRPSGVPNRFSGSKSGNTASLTISGLQAEDEGDYYCSSYTISSAQVFGGGTKLTVL	782000 M⁻¹ s⁻¹
L12.cP07E10 (antibody, V domains shown, human IgG1) VH: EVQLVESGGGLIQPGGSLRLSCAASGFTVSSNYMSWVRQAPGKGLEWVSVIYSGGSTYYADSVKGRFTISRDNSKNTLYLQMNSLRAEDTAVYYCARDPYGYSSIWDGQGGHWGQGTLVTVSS VL: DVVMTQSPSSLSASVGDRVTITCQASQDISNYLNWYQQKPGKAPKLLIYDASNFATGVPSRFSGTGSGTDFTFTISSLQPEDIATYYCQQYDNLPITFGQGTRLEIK	140000 M⁻¹ s⁻¹
L12.bP11C10 (antibody, V domains shown, human IgG1) VH: QVQLVQSGAEVKKPGASVKVSCKASGYIFSGYYMHWVRQAPGQGLEWMGWISPDSGGTNYAQKFQGRVTMTRDTSITTGYMELSGLRSDDTAVYYCARGPRYSGTYFDYWGQGTLVTISS VL: QSALTQPTSVSGSPGQSITISCTGTSSDVGGYNYVSWYQQHPGKAPKLIIYDVSNRPSGVSNRFSGSKSGNTASLTISGLQAEDEADYYCSSYTVSSTQVFGGGTKLTVL	493000 M⁻¹ s⁻¹

Input L12.bP10G07 (antibody, V domains shown, human IgG1) VH: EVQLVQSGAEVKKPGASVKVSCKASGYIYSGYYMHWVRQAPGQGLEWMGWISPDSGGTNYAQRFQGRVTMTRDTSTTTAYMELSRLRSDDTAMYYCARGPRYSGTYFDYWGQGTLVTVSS VL: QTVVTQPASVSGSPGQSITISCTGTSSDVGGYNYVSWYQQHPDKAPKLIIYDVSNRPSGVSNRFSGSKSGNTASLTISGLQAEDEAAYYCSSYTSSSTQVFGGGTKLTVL . Output kon: 436000 M⁻¹ s⁻¹

This collection of values is drawn from patent US20230357364A1.
